- System: TGFβ signal
- experimental_protocol: TGFβ signal inhibitory activity, (SBE)4-Luc reporter in A549 cells (Test Examples 1A and 1B)
- Format: cell-based, human
- experimental_setup: Homo sapiens, A549; 3 µM; compounds of Reference Examples (Test Example 1B); read-out: TGFβ inhibition rate, %
readout_name: inhibition at 3 µM (%)
Write the answer as a number in %, unit excluded.

Please review the following examples before continuing.
COc1cc2c(Oc3cc4ccccc4nc3C)ccnc2cc1OCCN(C)C
100
CCCOc1ccc(Oc2ccnc3cc(OC)c(OC)cc23)c(C(C)=O)c1
18
COc1cc2nccc(Oc3ccc(C)nc3-c3ccccc3C)c2cc1OC
69
COc1cc2nccc(Oc3cc4ccncc4cc3C)c2cc1OC
9
Cc1ccc(-c2nc(C)c(C)cc2Oc2ccnc3ccccc23)nc1
97

Ask | Suppose we examine the molecule COc1cc2nccc(Oc3ccc(C)nc3C#N)c2cc1OC ; what inhibition at 3 µM value has been reported?
Reply | 28

Ask | Then what about the molecule COc1cc2c(Oc3cc(C)c(C)nc3-c3ccc(C)cn3)ccnc2cc1OCCCl ?
Reply | 99

Ask | Then what about the molecule COc1cc2nccc(Oc3ccc(C)nc3C)c2cc1OC ?
Reply | 99

Ask | Then what about the molecule COc1cc2c(Oc3cc(C)c(C)nc3-c3nc(C)c(C)s3)ccnc2cc1OCc1ccccc1 ?
Reply | 41

Ask | Then what about the molecule COc1cc2nccc(Oc3cc4c(cc3C(C)=O)CCC4)c2cc1OC ?
Reply | 57

Ask | Then what about the molecule COc1cc2c(Oc3cc(C)c(C)nc3-c3ccc(C)cn3)ccnc2cc1OCC1CO1 (stereo not drawn) ?
Reply | 97

====

- Test system: TGFβ signal
- experimental_protocol: TGFβ signal inhibitory activity, (SBE)4-Luc reporter in A549 cells (Test Examples 1A and 1B)
- Assay type: cell-based, human
- experimental_setup: Homo sapiens, A549; test compound 10 µM; Reference Examples, Table 1B; read-out: TGFβ inhibition rate, %
readout_name: inhibition at 10 µM (%)
Write the answer as a number in %, unit excluded.

Please review the following examples before continuing.
COc1cc2nccc(Oc3ccccc3C(=O)/C=C/c3ccccc3)c2cc1OC [r57]
55
COc1cc2nccc(Oc3ccccc3C(=O)OCC(C)C)c2cc1OC [Compound r97]
92
COc1cc2c(Oc3ccc(C)cc3C(=O)c3ccccc3)ccnc2cc1OCCCN1CCC(CO)CC1 [r135]
100
CCC(O)c1cc(C)ccc1Oc1ccnc2cc(OC)c(OC)cc12 (stereo not drawn) [Compound r9]
77
COc1cc2nccc(Oc3ccc4cc(Br)ccc4c3)c2cc1OC [r18]
69
CCOC(=O)c1cc(C(C)=O)ccc1Oc1ccnc2cc(OC)c(OC)cc12 [Compound r88]
94
COc1ccc(Oc2ccnc3cc(OCCCCl)c(OC)cc23)c(C(C)=O)c1 [Compound r121]
100
COc1ccc(Oc2ccnc3cc(OCCCN4CCOCC4)c(OC)cc23)c(C(C)=O)c1 [r122]
100
COc1cc2c(Oc3ccc(C)cc3C(=O)c3ccccc3)ccnc2cc1OCC(O)CN1CCN(C)CC1 (stereo not drawn) [Compound r158]
100
CCCCCCCCOc1ccc(C(=O)c2ccccc2)c(Oc2ccnc3cc(OC)c(OC)cc23)c1 [Compound r66]
86

Ask | Suppose we examine the compound COc1cc2c(Oc3ccc(C)cc3C(=O)c3ccccc3)ccnc2cc1OCCCCN1CCC(N2CCCCC2)CC1 [Compound r146] ; what inhibition at 10 µM value has been reported?
Reply | 100
